pIC50 values, listed per item
Biological target: human αVβ6 (Homo sapiens, UniProt P06756+P18564)
Sequence (P06756 31-992 limits assumed): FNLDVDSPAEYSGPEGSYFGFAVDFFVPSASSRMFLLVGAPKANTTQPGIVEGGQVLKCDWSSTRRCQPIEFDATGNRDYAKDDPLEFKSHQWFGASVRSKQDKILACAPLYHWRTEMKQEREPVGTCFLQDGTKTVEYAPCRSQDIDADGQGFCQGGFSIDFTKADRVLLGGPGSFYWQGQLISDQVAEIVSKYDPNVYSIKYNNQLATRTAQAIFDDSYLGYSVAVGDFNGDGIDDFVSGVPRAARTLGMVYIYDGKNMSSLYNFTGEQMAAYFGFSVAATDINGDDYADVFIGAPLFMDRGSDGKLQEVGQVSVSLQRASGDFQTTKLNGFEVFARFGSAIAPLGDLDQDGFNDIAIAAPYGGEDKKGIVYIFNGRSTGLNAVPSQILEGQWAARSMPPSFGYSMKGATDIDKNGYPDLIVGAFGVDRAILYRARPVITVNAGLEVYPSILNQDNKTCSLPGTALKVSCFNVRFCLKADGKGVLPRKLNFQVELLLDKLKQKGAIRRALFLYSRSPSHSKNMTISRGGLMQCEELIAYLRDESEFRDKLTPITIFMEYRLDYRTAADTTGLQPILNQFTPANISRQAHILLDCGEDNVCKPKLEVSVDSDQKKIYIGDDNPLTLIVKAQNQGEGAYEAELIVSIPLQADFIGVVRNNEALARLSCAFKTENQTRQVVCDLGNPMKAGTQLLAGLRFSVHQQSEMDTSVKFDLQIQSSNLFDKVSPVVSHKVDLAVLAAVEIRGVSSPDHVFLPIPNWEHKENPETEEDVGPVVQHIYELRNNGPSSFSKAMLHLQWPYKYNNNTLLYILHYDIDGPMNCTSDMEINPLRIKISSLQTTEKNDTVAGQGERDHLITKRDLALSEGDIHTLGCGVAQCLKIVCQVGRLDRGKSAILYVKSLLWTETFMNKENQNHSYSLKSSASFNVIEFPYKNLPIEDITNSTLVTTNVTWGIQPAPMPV
Sequence (P18564 22-707 limits assumed): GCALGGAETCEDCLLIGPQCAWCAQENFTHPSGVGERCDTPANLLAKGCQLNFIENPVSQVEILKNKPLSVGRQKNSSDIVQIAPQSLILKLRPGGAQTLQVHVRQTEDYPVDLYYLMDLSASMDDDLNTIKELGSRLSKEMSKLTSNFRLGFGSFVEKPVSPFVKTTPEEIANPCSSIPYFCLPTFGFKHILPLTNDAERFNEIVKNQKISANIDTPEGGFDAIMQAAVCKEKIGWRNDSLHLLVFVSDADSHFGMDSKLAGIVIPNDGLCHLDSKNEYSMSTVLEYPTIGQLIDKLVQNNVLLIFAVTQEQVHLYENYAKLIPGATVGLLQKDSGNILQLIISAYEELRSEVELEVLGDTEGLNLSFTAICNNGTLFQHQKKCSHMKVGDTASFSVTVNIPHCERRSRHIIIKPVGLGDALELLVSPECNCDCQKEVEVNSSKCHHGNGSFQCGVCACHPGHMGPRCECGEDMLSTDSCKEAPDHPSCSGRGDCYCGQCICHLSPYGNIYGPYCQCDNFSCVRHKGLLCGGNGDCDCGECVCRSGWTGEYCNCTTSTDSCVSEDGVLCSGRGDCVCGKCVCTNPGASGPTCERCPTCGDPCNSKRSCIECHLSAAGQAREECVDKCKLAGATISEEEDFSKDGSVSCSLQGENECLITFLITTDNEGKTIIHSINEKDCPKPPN
Assay: human αVβ6 HTRF binding assay
Conditions: alternatively SPA-based assay
pIC50: −log10 of the molar value.
Measured metric: pIC50

| Molecule | Data value |
| --- | --- |
| CC(=O)N(CCCc1ccc2c(n1)NCCC2)C1CC(C(CC(=O)O)c2ccc3nccnc3c2)C1 (stereo not shown) | 8.17 |
| COc1ccc(C(CC(=O)O)N2CC3(CC(CCc4ccc5c(n4)NCCC5)C3)C2)cn1 (stereo not shown) | 8.43 |
| Cc1cc(C)c(S(=O)(=O)N[C@@H](CNC(=O)C2CC3(CC(NC(=O)CCc4ccc5c(n4)NCCC5)C3)C2)C(=O)O)c(C)c1 (stereo partly shown) | 6.42 |
| COc1ccc([C@H](CC(=O)O)N2CC(CCCc3ccc4c(n3)NCCC4)C2=O)cc1F (single isomer, unassigned) [Example 179] | 7.26 |
| COc1ccc([C@H](CC(=O)O)N2CC(CCCc3ccc4c(n3)NCCC4)C2)cn1 | 8.40 |
| O=C(N[C@@H](CNC(=O)[C@H]1C[C@@H](Cc2ccc3c(n2)NCCC3)C1)C(=O)O)OCc1ccccc1 | 8.29 |
| COc1ccc([C@H](CC(=O)O)NC(=O)C2CC(CCc3ccc4c(n3)NCCC4)C2)cn1 (stereo partly shown) | 9.24 |
